Taken from the supplement of paper PMC10307832.

Test system: NCI-H1915
experimental-details: relative viability (nuclei count vs DMSO), 5 days (fraction); higher = more cells survive
assay-conditions: first compound 0.05 µM
measurement-type: relative viability
Returns: the value as a bare number; no unit string appended.

Query :: Hello, please tell me recorded relative viability for this one: CC1(C)CCC(c2ccc(Cl)cc2)=C(CN2CCN(c3ccc(C(=O)NS(=O)(=O)c4ccc(N[C@H](CCN5CCOCC5)CSc5ccccc5)c(S(=O)(=O)C(F)(F)F)c4)cc3)CC2)C1 [Navitoclax] + CC(=O)Nc1cccc(-n2c(=O)n(C3CC3)c(=O)c3c(Nc4ccc(I)cc4F)n(C)c(=O)c(C)c32)c1 [Trametinib] (partner 0.02 µM)
Result :: 0.297

Query :: Hello, please tell me recorded relative viability for this one: CC1(C)CCC(c2ccc(Cl)cc2)=C(CN2CCN(c3ccc(C(=O)NS(=O)(=O)c4ccc(N[C@H](CCN5CCOCC5)CSc5ccccc5)c(S(=O)(=O)C(F)(F)F)c4)cc3)CC2)C1 [Navitoclax] + COc1cc2c(Oc3ccc(NC(=O)C4(C(=O)Nc5ccc(F)cc5)CC4)cc3F)ccnc2cc1OCCCN1CCOCC1 [Foretinib] (partner 0.25 µM)
Result :: 1.11

Query :: Hello, please tell me recorded relative viability for this one: CC1(C)CCC(c2ccc(Cl)cc2)=C(CN2CCN(c3ccc(C(=O)NS(=O)(=O)c4ccc(N[C@H](CCN5CCOCC5)CSc5ccccc5)c(S(=O)(=O)C(F)(F)F)c4)cc3)CC2)C1 [Navitoclax] + N=C(N)NC(=N)NCCc1ccccc1 [Phenformin] (partner 250 µM)
Result :: 0.441

---

System: NCI-H1666
experimental-details: relative viability (nuclei count vs DMSO), 5 days (fraction); higher = more cells survive
assay-conditions: first compound 2.53 µM
I'd appreciate it if you could supply relative viability values for the items below.
Returns: the value as a bare number; no unit string appended.

Query :: Hello, please tell me recorded relative viability for this one: Oc1nc(-c2ccc(C(F)(F)F)cc2)nc2c1CSCC2 [XAV939] + Nc1ncn([C@H]2C[C@H](O)[C@@H](CO)O2)c(=O)n1 [Decitabine] (partner 2 µM)
Result :: 0.531

Query :: Hello, please tell me recorded relative viability for this one: C=C1C(=O)O[C@@H](CCCCCCCC)[C@@H]1C(=O)O [C-75] + Cc1nc(NC(=O)N2CCC[C@H]2C(N)=O)sc1-c1ccnc(C(C)(C)C(F)(F)F)c1 [Alpelisib] (partner 2 µM)
Result :: 0.987

Query :: Hello, please tell me recorded relative viability for this one: C=C1C(=O)O[C@@H](CCCCCCCC)[C@@H]1C(=O)O [C-75] + C[C@@H](Oc1cc(-c2cnn(C3CCNCC3)c2)cnc1N)c1c(Cl)ccc(F)c1Cl [Crizotinib] (partner 1 µM)
Result :: 0.847

Query :: Hello, please tell me recorded relative viability for this one: Oc1nc(-c2ccc(C(F)(F)F)cc2)nc2c1CSCC2 [XAV939] + Cc1nc(NC(=O)N2CCC[C@H]2C(N)=O)sc1-c1ccnc(C(C)(C)C(F)(F)F)c1 [Alpelisib] (partner 2 µM)
Result :: 0.591

Query :: Hello, please tell me recorded relative viability for this one: C=C1C(=O)O[C@@H](CCCCCCCC)[C@@H]1C(=O)O [C-75] + COc1cc2c(Oc3ccc(NC(=O)C4(C(=O)Nc5ccc(F)cc5)CC4)cc3F)ccnc2cc1OCCCN1CCOCC1 [Foretinib] (partner 0.25 µM)
Result :: 0.732

---

Tested on: NCI-H358
experimental-details: relative viability (nuclei count vs DMSO), 5 days (fraction); higher = more cells survive
assay-conditions: first compound 2.53 µM
I'd appreciate it if you could supply relative viability values for the items below.
Returns: the value as a bare number; no unit string appended.

Query :: Hello, please tell me recorded relative viability for this one: Oc1nc(-c2ccc(C(F)(F)F)cc2)nc2c1CSCC2 [XAV939] + COc1cccc2cc(-c3nc([C@H]4CC[C@H](C(=O)O)CC4)n4ncnc(N)c34)[nH]c12 [OSI-027] (partner 0.5 µM)
Result :: 0.605

Query :: Hello, please tell me recorded relative viability for this one: Oc1nc(-c2ccc(C(F)(F)F)cc2)nc2c1CSCC2 [XAV939] + C[C@]1(O)C[C@@H](c2nc(-c3ccc4ccc(-c5ccccc5)nc4c3)c3c(N)nccn32)C1 [Linsitinib] (partner 1 µM)
Result :: 0.558

Query :: Hello, please tell me recorded relative viability for this one: Oc1nc(-c2ccc(C(F)(F)F)cc2)nc2c1CSCC2 [XAV939] + CS(=O)(=O)CCNCc1ccc(-c2ccc3ncnc(Nc4ccc(OCc5cccc(F)c5)c(Cl)c4)c3c2)o1 [Lapatinib] (partner 2 µM)
Result :: 0.434

Query :: Hello, please tell me recorded relative viability for this one: C=C1C(=O)O[C@@H](CCCCCCCC)[C@@H]1C(=O)O [C-75] + Cc1nc(NC(=O)N2CCC[C@H]2C(N)=O)sc1-c1ccnc(C(C)(C)C(F)(F)F)c1 [Alpelisib] (partner 2 µM)
Result :: 0.859

Query :: Hello, please tell me recorded relative viability for this one: Oc1nc(-c2ccc(C(F)(F)F)cc2)nc2c1CSCC2 [XAV939] + CS(=O)(=O)N1CCN(Cc2cc3nc(-c4cccc5[nH]ncc45)nc(N4CCOCC4)c3s2)CC1 [Pictilisib] (partner 1 µM)
Result :: 0.277

---

System: SK-LU-1
experimental-details: relative viability (nuclei count vs DMSO), 5 days (fraction); higher = more cells survive
assay-conditions: first compound 8 µM
I'd appreciate it if you could supply relative viability values for the items below.
Returns: the value as a bare number; no unit string appended.

Query :: Hello, please tell me recorded relative viability for this one: C=C1C(=O)O[C@@H](CCCCCCCC)[C@@H]1C(=O)O [C-75] + COc1cccc2cc(-c3nc([C@H]4CC[C@H](C(=O)O)CC4)n4ncnc(N)c34)[nH]c12 [OSI-027] (partner 0.5 µM)
Result :: 0.308

Query :: Hello, please tell me recorded relative viability for this one: C=C1C(=O)O[C@@H](CCCCCCCC)[C@@H]1C(=O)O [C-75] + CC1(C)CCC(c2ccc(Cl)cc2)=C(CN2CCN(c3ccc(C(=O)NS(=O)(=O)c4ccc(N[C@H](CCN5CCOCC5)CSc5ccccc5)c(S(=O)(=O)C(F)(F)F)c4)cc3)CC2)C1 [Navitoclax] (partner 0.5 µM)
Result :: 0.751

Query :: Hello, please tell me recorded relative viability for this one: C=C1C(=O)O[C@@H](CCCCCCCC)[C@@H]1C(=O)O [C-75] + CS(=O)(=O)CCNCc1ccc(-c2ccc3ncnc(Nc4ccc(OCc5cccc(F)c5)c(Cl)c4)c3c2)o1 [Lapatinib] (partner 2 µM)
Result :: 0.577

Query :: Hello, please tell me recorded relative viability for this one: C=C1C(=O)O[C@@H](CCCCCCCC)[C@@H]1C(=O)O [C-75] + Nc1ncn([C@H]2C[C@H](O)[C@@H](CO)O2)c(=O)n1 [Decitabine] (partner 2 µM)
Result :: 0.467

---

I'd appreciate it if you could supply relative viability values for the items below.
Tested on: RERF-LC-KJ
experimental-details: relative viability (nuclei count vs DMSO), 5 days (fraction); higher = more cells survive
assay-conditions: first compound 0.8 µM
Returns: the value as a bare number; no unit string appended.

Query :: Hello, please tell me recorded relative viability for this one: C=C1C(=O)O[C@@H](CCCCCCCC)[C@@H]1C(=O)O [C-75] + C[C@]1(O)C[C@@H](c2nc(-c3ccc4ccc(-c5ccccc5)nc4c3)c3c(N)nccn32)C1 [Linsitinib] (partner 1 µM)
Result :: 0.827

Query :: Hello, please tell me recorded relative viability for this one: Oc1nc(-c2ccc(C(F)(F)F)cc2)nc2c1CSCC2 [XAV939] + C[C@@H](Oc1cc(-c2cnn(C3CCNCC3)c2)cnc1N)c1c(Cl)ccc(F)c1Cl [Crizotinib] (partner 1 µM)
Result :: 0.741

Query :: Hello, please tell me recorded relative viability for this one: Oc1nc(-c2ccc(C(F)(F)F)cc2)nc2c1CSCC2 [XAV939] + CC(=O)c1c(C)c2cnc(Nc3ccc(N4CCNCC4)cn3)nc2n(C2CCCC2)c1=O [Palbociclib] (partner 0.5 µM)
Result :: 1.02

---

Tested on: NCI-H2126
experimental-details: relative viability (nuclei count vs DMSO), 5 days (fraction); higher = more cells survive
assay-conditions: first compound 0.5 µM
measurement-type: relative viability

Query :: Hello, please tell me recorded relative viability for this one: CC1(C)CCC(c2ccc(Cl)cc2)=C(CN2CCN(c3ccc(C(=O)NS(=O)(=O)c4ccc(N[C@H](CCN5CCOCC5)CSc5ccccc5)c(S(=O)(=O)C(F)(F)F)c4)cc3)CC2)C1 [Navitoclax] + NC(=O)Nc1cc(-c2cccc(F)c2)sc1C(=O)N[C@H]1CCCNC1 [AZD7762] (partner 0.2 µM)
Result :: 0.947

Query :: Hello, please tell me recorded relative viability for this one: CC1(C)CCC(c2ccc(Cl)cc2)=C(CN2CCN(c3ccc(C(=O)NS(=O)(=O)c4ccc(N[C@H](CCN5CCOCC5)CSc5ccccc5)c(S(=O)(=O)C(F)(F)F)c4)cc3)CC2)C1 [Navitoclax] + C[C@@H](Oc1cc(-c2cnn(C3CCNCC3)c2)cnc1N)c1c(Cl)ccc(F)c1Cl [Crizotinib] (partner 1 µM)
Result :: 0.972

Query :: Hello, please tell me recorded relative viability for this one: CC1(C)CCC(c2ccc(Cl)cc2)=C(CN2CCN(c3ccc(C(=O)NS(=O)(=O)c4ccc(N[C@H](CCN5CCOCC5)CSc5ccccc5)c(S(=O)(=O)C(F)(F)F)c4)cc3)CC2)C1 [Navitoclax] + CS(=O)(=O)N1CCN(Cc2cc3nc(-c4cccc5[nH]ncc45)nc(N4CCOCC4)c3s2)CC1 [Pictilisib] (partner 1 µM)
Result :: 0.451

Query :: Hello, please tell me recorded relative viability for this one: CC1(C)CCC(c2ccc(Cl)cc2)=C(CN2CCN(c3ccc(C(=O)NS(=O)(=O)c4ccc(N[C@H](CCN5CCOCC5)CSc5ccccc5)c(S(=O)(=O)C(F)(F)F)c4)cc3)CC2)C1 [Navitoclax] + COc1cc2c(Oc3ccc(NC(=O)C4(C(=O)Nc5ccc(F)cc5)CC4)cc3F)ccnc2cc1OCCCN1CCOCC1 [Foretinib] (partner 0.25 µM)
Result :: 1.19
